Data origin: patent US20240327417A1

- MEASURED TARGET: Full length DGKζ (in-house protein M1-V929) (Homo sapiens)
- Construct: His (N); TEV cleavage site (N)
- PROTOCOL DETAILS: Biochemical DGK IC50 assay (ADP-Glo, lipid micelle substrate), DGKζ
- EXPERIMENTAL CONDITIONS: 0.5 nM enzyme, 140 μM ATP, 80 μM DAG, 1 hour preincubation, 1 hour reaction, room temperature, read-out: IC50s for DGKζ
OBSERVATION TYPE: IC50

Here's what some known entries look like.
COMPOUND: COCc1cn2c(n1)c(N1C[C@@H](C)N(C(C)c3ccc4nccnc4c3)C[C@@H]1C)cc(=O)n2C (stereo partly shown)
VALUE MEASURED: 0.48 µM
//
COMPOUND: CC[C@@H]1CN(c2cc(=O)n(C)n3cc(C=NOC)nc23)[C@@H](C)CN1C(C)c1ccc2nccnc2c1 (single isomer, unassigned) [Compound A9d]
VALUE MEASURED: > 10 µM
//
COMPOUND: CC(c1ccc2nccnc2c1)N1C[C@H](C)N(c2cc(=O)n(C)n3cc(CC#N)nc23)C[C@H]1C (single isomer, unassigned) [Compound A1b]
VALUE MEASURED: > 10 µM

Next compound, IC50 to be filled in.
The value of IC50 measured for the compound CC(C#N)c1cn2c(n1)c(N1C[C@@H](C)N(C(C)c3ccc4nccnc4c3)C[C@@H]1C)cc(=O)n2C (stereo partly shown) turned out to be > 10 µM

---

- MEASURED TARGET: Full length DGKζ (in-house protein M1-V929) (Homo sapiens, UniProt Q13574)
- Construct: His (N); TEV cleavage site (N)
- Sequence (Q13574 1-929 isoform Q13574-4): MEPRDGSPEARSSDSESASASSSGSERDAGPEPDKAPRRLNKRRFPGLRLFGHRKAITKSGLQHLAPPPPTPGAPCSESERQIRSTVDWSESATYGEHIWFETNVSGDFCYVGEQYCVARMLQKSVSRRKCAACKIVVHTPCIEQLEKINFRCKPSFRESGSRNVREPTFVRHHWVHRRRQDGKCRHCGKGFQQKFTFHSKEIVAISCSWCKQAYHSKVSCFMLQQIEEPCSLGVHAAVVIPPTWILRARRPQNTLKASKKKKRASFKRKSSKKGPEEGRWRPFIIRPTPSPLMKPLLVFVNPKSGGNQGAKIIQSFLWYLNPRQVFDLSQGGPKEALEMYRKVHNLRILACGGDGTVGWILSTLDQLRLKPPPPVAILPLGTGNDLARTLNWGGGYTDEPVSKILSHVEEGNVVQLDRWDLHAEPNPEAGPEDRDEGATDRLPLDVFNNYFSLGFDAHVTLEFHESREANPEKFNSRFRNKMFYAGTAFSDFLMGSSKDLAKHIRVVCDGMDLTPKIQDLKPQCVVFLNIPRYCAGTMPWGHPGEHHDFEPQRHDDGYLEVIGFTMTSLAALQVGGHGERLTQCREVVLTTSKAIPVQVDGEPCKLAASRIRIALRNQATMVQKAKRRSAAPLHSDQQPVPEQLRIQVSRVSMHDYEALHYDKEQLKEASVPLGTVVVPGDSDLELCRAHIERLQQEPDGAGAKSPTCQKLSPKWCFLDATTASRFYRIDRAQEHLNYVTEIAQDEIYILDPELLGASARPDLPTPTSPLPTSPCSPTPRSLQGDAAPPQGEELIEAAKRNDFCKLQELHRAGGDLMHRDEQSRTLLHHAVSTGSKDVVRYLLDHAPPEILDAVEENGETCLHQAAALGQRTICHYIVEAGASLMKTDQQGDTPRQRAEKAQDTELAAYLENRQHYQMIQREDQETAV
- PROTOCOL DETAILS: Biochemical DGK IC50 assay (ADP-Glo, lipid micelle substrate), DGKζ
- EXPERIMENTAL CONDITIONS: 0.5 nM enzyme, 140 μM ATP, 80 μM DAG, 1 hour preincubation, 1 hour reaction, room temperature, read-out: IC50s for DGKζ
pIC50: −log10 of the molar value.
OBSERVATION TYPE: pIC50

Here's what some known entries look like.
COMPOUND: CC[C@H]1CN(C(C)c2cc3sc(C)nc3cc2F)[C@H](CC)CN1c1cc(=O)n(C)n2cc(CC#N)nc12 (single isomer, unassigned) [Compound A61b]
pIC50: 5.70
//
COMPOUND: CC[C@H]1CN(C(C)c2ccc3ncsc3c2F)[C@H](CC)CN1c1cc(=O)n(C)n2cc(CC#N)nc12 (single isomer, unassigned) [Compound A62b]
pIC50: 5.92
//
COMPOUND: CCC(c1ccc(C2CC2)nc1)N1C[C@H](CC)N(c2cc(=O)n(C)n3cc(CC#N)nc23)C[C@H]1CC (single isomer, unassigned) [Compound A89a]
pIC50: 7.14
//
COMPOUND: CC[C@H]1CN(C(C)c2ccc3nc(C)sc3c2)[C@H](CC)CN1c1c(C#N)c(=O)n(C)n2cc(CC#N)nc12 (stereo partly shown)
pIC50: 6.88

1: CC[C@H]1CN(C(C)c2ccc(F)cc2OC)[C@H](CC)CN1c1cc(=O)n(C)n2cc(CC#N)nc12 (stereo partly shown)
2: [2H]C([2H])([2H])n1c(=O)cc(N2C[C@@H](CC)N(C(C)c3ccc4nc(C)sc4c3)C[C@@H]2CC)c2nc(CC#N)cn21 (single isomer, unassigned) [Compound A94b]
When the recorded pIC50 values are compared, which is smaller: that of 1 or that of 2 ? I would appreciate it if you answered with the label of your choice.
2
(2: 5.94, 1: 6.96)

I: CC[C@H]1CN(C(CCOC)c2ccc3nc(C)sc3c2)[C@H](CC)CN1c1cc(=O)n(C)n2cc(CC#N)nc12 (single isomer, unassigned) [Compound A102b]
II: CC[C@H]1CN(C(C)c2ccc3nccnc3c2)[C@H](CC)CN1c1cc(=O)n(C)n2cc(CC#N)nc12 (single isomer, unassigned) [Compound A14b]
Which shows the larger pIC50 value: I or II ? I would appreciate it if you answered with the label of your choice.
II
